Experiment: mn = molality of the nth substance listed, in mol/kg
Conditions: 308.15 K; 100 kPa; Liquid; Capillary tube (Ostwald / Ubbelohde) method; m1 = 0.5
EXPERIMENTAL_READOUT: viscosity (mPa·s)

>>> reported("O=P([O-])([O-])[O-].[K+].[K+].[K+] [tripotassium phosphate] + O")
0.915
>>> reported("N.O=P(O)(O)O [ammonium dihydrogen phosphate] + O")
0.822
>>> reported("O=P([O-])(O)O.[K+] [monopotassium phosphate] + O")
0.815
>>> reported("O=P([O-])(O)O.[Na+] [sodium dihydrogen phosphate] + O")
0.88

* * *

Test: mn = molality of the nth substance listed, in mol/kg
Conditions: 298.15 K; 100 kPa; Liquid; Capillary tube (Ostwald / Ubbelohde) method; m1 = 0.5
EXPERIMENTAL_READOUT: viscosity (mPa·s)

>>> reported("O=P([O-])(O)O.[Na+] [sodium dihydrogen phosphate] + O")
1.093
>>> reported("N.O=P(O)(O)O [ammonium dihydrogen phosphate] + O")
1.014
>>> reported("O=P([O-])([O-])[O-].[K+].[K+].[K+] [tripotassium phosphate] + O")
1.133
>>> reported("O=P([O-])(O)O.[K+] [monopotassium phosphate] + O")
1.025
